Molecular target: T1, cynoCD46-His (cynomolgus, UniProt A0A2K5WCL8 35-328)
T1 construct: extracellular domain; Immobilised by amine coupling on the SPR chip; not shown: His tag
T1 sequence: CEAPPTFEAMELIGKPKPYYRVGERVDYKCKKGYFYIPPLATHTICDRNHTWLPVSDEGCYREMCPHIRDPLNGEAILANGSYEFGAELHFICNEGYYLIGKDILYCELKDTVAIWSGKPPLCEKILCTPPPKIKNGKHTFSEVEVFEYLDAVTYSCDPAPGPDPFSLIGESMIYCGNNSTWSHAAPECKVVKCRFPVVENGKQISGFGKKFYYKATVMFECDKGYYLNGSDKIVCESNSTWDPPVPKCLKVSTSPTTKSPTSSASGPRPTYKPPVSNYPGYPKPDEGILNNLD
Assay: SPR, cynoCD46-His immobilised, antibody as analyte, pH 7.4
measurement-type: Kd (nM)
Supply the numeric figure in nM, leaving out any unit text.

*Q* Would you mind telling me what Kd value was observed for BA-133-04-03 (antibody, V domains shown, also called CPE hit BA133-04-03) VH: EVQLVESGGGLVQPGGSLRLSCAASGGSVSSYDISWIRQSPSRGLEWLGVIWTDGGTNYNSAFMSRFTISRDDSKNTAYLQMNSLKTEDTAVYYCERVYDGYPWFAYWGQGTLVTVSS VL: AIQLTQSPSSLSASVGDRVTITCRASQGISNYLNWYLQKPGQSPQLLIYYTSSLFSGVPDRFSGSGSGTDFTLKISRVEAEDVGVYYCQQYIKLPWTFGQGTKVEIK ?
*A* 1.26

The measured values listed here are drawn from patent US20230242662A1.
